assay: AUC(0 to t) in male Sprague-Dawley rat at 5 mg/kg, po measured after 144 hrs by LC/MS/MS analysis; format: ADME, organism-based; conditions: in vivo
Outcome measure: AUC(0-t) at 144 h (ng·h/mL)

C[C@@H](Nc1nc(N[C@H](C)C(F)(F)F)nc(C2=C(F)[C@H](O)C(F)(F)CC2)n1)C(F)(F)F = 96600

----------
assay: Oral bioavailability in male ICR mouse at 10 mg/kg measured after 8 hrs by LC/MS/MS analysis; assay type: ADME, organism-based; settings: in vivo
Examples of molecules with documented bioavailability follow.
Outcome measure: bioavailability (%)

C[C@@H](Nc1nc(N[C@H](C)C(F)(F)F)nc(C2=C(F)[C@H](O)C(F)(F)CC2)n1)C(F)(F)F = 84.2
C[C@@H](Nc1nc(N[C@H](C)C(F)(F)F)nc(C2=C(F)[C@@H](O)CCC2)n1)C(F)(F)F = 134
CC(C)(O)CNc1nc(Nc2ccnc(C(F)(F)F)c2)nc(-c2cccc(C(F)(F)F)n2)n1 = 95.1
N#Cc1ccnc(N2C(=O)CC[C@H]2C(=O)N(c2cncc(F)c2)[C@H](C(=O)NC2CC(F)(F)C2)c2ccccc2Cl)c1 = 64.5

----------
experiment: Cmax in male Sprague-Dawley rat at 5 mg/kg, po measured after 24 hrs by LC/MS/MS analysis; type: ADME, organism-based; conditions: in vivo
Outcome measure: Cmax (ng/mL)

C[C@@H](Nc1nc(N[C@H](C)C(F)(F)F)nc(C2=C(F)[C@H](O)C(F)(F)CC2)n1)C(F)(F)F = 1490

----------
biological target: Isocitrate dehydrogenase [NADP], mitochondrial (Homo sapiens, UniProt P48735, R140Q); assay: Inhibition of IDH2 R140Q mutant (unknown origin) using alpha-ketoglutarate as substrate preincubated with compound for 16 hrs followed by substrate addition and measured after 1 hr in presence of NADPH by fluorescence based analysis
Sequence (P48735 40-452 R140Q limits assumed): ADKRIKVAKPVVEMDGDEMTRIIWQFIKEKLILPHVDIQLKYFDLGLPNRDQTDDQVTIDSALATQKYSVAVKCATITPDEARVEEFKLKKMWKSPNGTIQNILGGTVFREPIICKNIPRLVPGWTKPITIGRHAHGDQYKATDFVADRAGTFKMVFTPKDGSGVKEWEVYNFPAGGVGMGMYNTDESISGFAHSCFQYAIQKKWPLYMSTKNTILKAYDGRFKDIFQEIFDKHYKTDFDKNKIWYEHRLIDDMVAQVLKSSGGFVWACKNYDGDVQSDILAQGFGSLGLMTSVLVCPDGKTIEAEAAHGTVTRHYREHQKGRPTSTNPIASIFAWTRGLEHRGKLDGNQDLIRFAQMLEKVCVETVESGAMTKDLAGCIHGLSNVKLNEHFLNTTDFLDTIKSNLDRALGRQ
pIC50: −log10 of the molar value.
Examples of compounds with documented pIC50 follow.
Outcome measure: pIC50

CC(C)Nc1nc(N[C@H](C)C(F)(F)F)nc(C2=CCOCC2)n1 = 5.63
CC(C)Nc1nc(N[C@H](C)C(F)(F)F)nc(C2=CC(O)CC2)n1 (mixture of isomers) = 7.07
CC(C)(O)CNc1nc(Nc2ccnc(C(F)(F)F)c2)nc(-c2cccc(C(F)(F)F)n2)n1 [ENASIDENIB] = 7.43
CC(C)C(=O)Nc1nc(N[C@H](C)C(F)(F)F)nc(C2=CC(O)CCC2)n1 (mixture of isomers) = 6.58
CCCNc1nc(N[C@H](C)C(F)(F)F)nc(C2=CC(O)CCC2)n1 (mixture of isomers) = 7.46
CC(C)Nc1nc(N[C@H](C)C(F)(F)F)nc(C2=CC(F)CCC2)n1 (mixture of isomers) = 7.37
CC(C)Nc1nc(N[C@H](C)C(F)(F)F)nc(C2=C[C@@H](O)CCC2)n1 = 7.80
C[C@@H](Nc1nc(NCC(C)(C)O)nc(C2=CC(O)CCC2)n1)C(F)(F)F (mixture of isomers) = 5.92
C[C@H](Nc1nc(N[C@H](C)C(F)(F)F)nc(C2=C(F)C(O)C(F)(F)CC2)n1)C(F)(F)F (stereo partly drawn) = 6.78
CC(C)Nc1nc(N[C@H](C)C(F)(F)F)nc(C2=CC(F)(F)CCC2)n1 = 7.64
C[C@@H](Nc1nc(N[C@H](C)C(F)(F)F)nc(C2=CC(O)CCC2)n1)C(F)(F)F (mixture of isomers) = 7.46
C[C@@H](Nc1nc(NC(C)(C)C)nc(C2=CC(O)CCC2)n1)C(F)(F)F (mixture of isomers) = 6.95
CC(C)Nc1nc(N[C@H](C)C(F)(F)F)nc(C2(c3ccccc3)CC2)n1 = 6.60
C[C@H](Nc1nc(N[C@@H](C)C(F)(F)F)nc(C2=C(F)C(O)C(F)(F)CC2)n1)C(F)(F)F (mixture of isomers) = 6.51
CC(C)Nc1nc(N[C@H](C)C(F)(F)F)nc(C2=CCC(F)CC2)n1 (mixture of isomers) = 6.79
CC(C)Nc1nc(N[C@H](C)C(F)(F)F)nc(C2=C[C@H](O)CCC2)n1 = 6.10
CC(C)Nc1nc(N[C@H](C)C(F)(F)F)nc(C2=CCCCC2)n1 = 7.68
CC(C)Nc1nc(N[C@H](C)C(F)(F)F)nc(C2=CCCC(O)C2)n1 (mixture of isomers) = 5.75
C[C@@H](Nc1nc(N[C@H](C)C(F)(F)F)nc(C2=C(F)C(O)CCC2)n1)C(F)(F)F (mixture of isomers) = 7.27
C[C@@H](Nc1nc(N[C@H](C)C(F)(F)F)nc(C2=C(F)C(O)C(F)(F)CC2)n1)C(F)(F)F (stereo in doubt; 42) = 6.84
C[C@@H](Nc1nc(NC2CCCC2)nc(C2=CC(O)CCC2)n1)C(F)(F)F (mixture of isomers) = 7.48
CC(C)Nc1nc(N[C@H](C)C(F)(F)F)nc(C2=CCCC(F)C2)n1 (mixture of isomers) = 6.92
C[C@@H](Nc1nc(N[C@H](C)C(F)(F)F)nc(C2=C(F)C(O)C3(CC2)CC3)n1)C(F)(F)F (mixture of isomers) = 6.65
C[C@@H](Nc1nc(N[C@H](C)C(F)(F)F)nc(C2=C(F)[C@H](O)C(F)(F)CC2)n1)C(F)(F)F [RANOSIDENIB] = 7.55

----------
Examples of compounds with documented remaining at 0.5 h, 1 µM follow.
assay: Metabolic stability in male ICR mouse liver microsomes assessed as parent compound remaining at 1 uM measured after 30 mins in presence of NADPH by LC-MS analysis; assay type: ADME, Microsome; conditions: read-out: Stability
Outcome measure: remaining at 0.5 h, 1 µM

C[C@@H](Nc1nc(NC2CCC2)nc(C2=CC(O)CCC2)n1)C(F)(F)F (mixture of isomers) = 15.9%
CC(C)Nc1nc(N[C@H](C)C(F)(F)F)nc(C2=C[C@@H](O)CCC2)n1 = 48.1%
C[C@@H](Nc1nc(N[C@H](C)C(F)(F)F)nc(C2=C(F)C(O)C(F)(F)CC2)n1)C(F)(F)F (mixture of isomers) = 95.2%
C[C@@H](Nc1nc(N[C@H](C)C(F)(F)F)nc(C2=C(F)[C@H](O)C(F)(F)CC2)n1)C(F)(F)F = 98.4%
CC(C)Nc1nc(N[C@H](C)C(F)(F)F)nc(C2=CC(O)CCC2)n1 (mixture of isomers) = 44.1%
CC(C)Nc1nc(N[C@H](C)C(F)(F)F)nc(C2=CC(F)CCC2)n1 (mixture of isomers) = 16.8%

----------
assay: Metabolic stability in male ICR mouse liver microsomes assessed as parent compound remaining at 1 uM measured after 30 mins in presence of NADPH by LC-MS analysis; type: ADME, Microsome; settings: read-out: Stability
Outcome measure: remaining at 0.5 h, 1 µM (%)

CC(C)Nc1nc(N[C@H](C)C(F)(F)F)nc(C2=CCCCC2)n1 = 12.5
C[C@@H](Nc1nc(N[C@H](C)C(F)(F)F)nc(C2=C(F)[C@@H](O)CCC2)n1)C(F)(F)F = 86.2
C[C@@H](Nc1nc(N[C@H](C)C(F)(F)F)nc(C2=CC(O)CCC2)n1)C(F)(F)F (mixture of isomers) = 58.2
C[C@@H](Nc1nc(N[C@H](C)C(F)(F)F)nc(C2=C(F)C(O)CCC2)n1)C(F)(F)F (mixture of isomers) = 83.8

----------
assay: Half life in male Sprague-Dawley rat at 5 mg/kg, po measured after 24 hrs by LC/MS/MS analysis; type: ADME, organism-based; conditions: in vivo
Outcome measure: half-life (h)

C[C@@H](Nc1nc(N[C@H](C)C(F)(F)F)nc(C2=C(F)[C@H](O)C(F)(F)CC2)n1)C(F)(F)F [RANOSIDENIB] = 50.4

----------
experiment: Metabolic stability in male SD rat liver microsomes assessed as parent compound remaining at 1 uM measured after 30 mins in presence of NADPH by LC-MS analysis; format: ADME, Microsome; settings: Sprague-Dawley, read-out: Stability
Examples of compounds with documented remaining at 0.5 h, 1 µM follow.
Outcome measure: remaining at 0.5 h, 1 µM

CC(C)Nc1nc(N[C@H](C)C(F)(F)F)nc(C2=CC(F)CCC2)n1 (mixture of isomers) = 25.1%
C[C@@H](Nc1nc(N[C@H](C)C(F)(F)F)nc(C2=C(F)[C@@H](O)CCC2)n1)C(F)(F)F = 92.7%
CC(C)Nc1nc(N[C@H](C)C(F)(F)F)nc(C2=C[C@@H](O)CCC2)n1 = 65%
CC(C)Nc1nc(N[C@H](C)C(F)(F)F)nc(C2=CC(O)CCC2)n1 (mixture of isomers) = 74.1%
C[C@@H](Nc1nc(N[C@H](C)C(F)(F)F)nc(C2=C(F)C(O)CCC2)n1)C(F)(F)F (mixture of isomers) = 99%
CC(C)Nc1nc(N[C@H](C)C(F)(F)F)nc(C2=CCCCC2)n1 = 13.6%
C[C@@H](Nc1nc(N[C@H](C)C(F)(F)F)nc(C2=C(F)C(O)C(F)(F)CC2)n1)C(F)(F)F (mixture of isomers) = 102%
C[C@@H](Nc1nc(N[C@H](C)C(F)(F)F)nc(C2=C(F)[C@H](O)C(F)(F)CC2)n1)C(F)(F)F [RANOSIDENIB] = 99.5%
C[C@@H](Nc1nc(N[C@H](C)C(F)(F)F)nc(C2=CC(O)CCC2)n1)C(F)(F)F (mixture of isomers) = 79.8%
C[C@@H](Nc1nc(NC2CCC2)nc(C2=CC(O)CCC2)n1)C(F)(F)F (mixture of isomers) = 34%
